# Tested on: OVCAR-4 ovarian
# PROCEDURE_TEXT: NCI tumour cell line growth inhibition, 48 h
MEASURED_QUANTITY: TGI

Solved entries:
Ask: Using the record for CN(C)Cc1cc(C(C)(C)C)ccc1-c1ccc(C(C)(C)C)cc1CN(C)C , report its TGI.
Result: > 100 µM

Ask: Using the record for CC1=CCC2C3(C)CCC2(C(C)C)C1C3 (stereo not given) (tested in a mixture with another compound) , report its TGI.
Result: > 100 µM

Others:
Ask: Using the record for Cc1nc(C(N)=S)sc1C(/C=C/c1ccc(Cl)c(Cl)c1)=N/NC(C)(C)C , report its TGI.
Result: > 100 µM

Ask: Using the record for Cn1c(-c2cccs2)cc(-c2cccs2)c1-c1ccco1 , report its TGI.
Result: 5.07 µM

Ask: Using the record for Cc1cccc(CC(Cc2c(C)cccc2C(=O)O)C(=O)O)c1 (stereo not given) , report its TGI.
Result: > 100 µM
